- tgt: T1, His-tagged HM1.24 antigen, residues N49-A163 of the extracellular domain (UniProt Q10589 49-163)
- T1 chain: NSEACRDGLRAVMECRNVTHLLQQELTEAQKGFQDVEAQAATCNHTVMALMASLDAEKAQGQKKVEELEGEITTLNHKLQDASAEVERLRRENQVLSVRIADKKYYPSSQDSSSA
- run.description: Biacore
measurement.type: pKd
Note on units: pKd is unitless, being -log10 of a concentration expressed in mol/L.

Please review the following examples before continuing.
H0L0_IgG1_S239D/I332E (antibody, V domains shown) VH: QVQLQQSGAELARPGASVKLSCKASGYTFTPYWMQWVKQRPGQGLEWIGSIFPGDGDTRYSQKFKGKATLTADKSSSTAYMQLSILAFEDSAVYYCARGLRRGGYYFDYWGQGTTLTVSS VL: DIVMTQSHKFMSTSVGDRVSITCKASQDVNTAVAWYQQKPGQSPKLLIYSASNRYTGVPDRITGSGSGTDFTFTISSVQAEDLALYYCQQHYSTPFTFGSGTKLEIK ... 10.20
HM1.24_H0L0_IgG1_WT (antibody, V domains shown) VH: QVQLQQSGAELARPGASVKLSCKASGYTFTPYWMQWVKQRPGQGLEWIGSIFPGDGDTRYSQKFKGKATLTADKSSSTAYMQLSILAFEDSAVYYCARGLRRGGYYFDYWGQGTTLTVSS VL: DIVMTQSHKFMSTSVGDRVSITCKASQDVNTAVAWYQQKPGQSPKLLIYSASNRYTGVPDRITGSGSGTDFTFTISSVQAEDLALYYCQQHYSTPFTFGSGTKLEIKR ... 10.27
HM1.24_H1.2 heavy chain variant with HM1.24_L4 light chain (antibody, V domains shown) VH: QVQLVQSGAEVKKPGASVKVSCKASGYTFTPYWMQWVRQAPGQGLEWMGSIFPGSGDTRYSQSFQGQVTISADKSISTAYMELSRLRSDDTAVYYCARGLRRGGYYFDYWGQGTLVTVSS VL: DIVMTQSPLSLPVTLGQPASISCKASQDVNTAVAWYLQKPGKSPKLLIYSASNRYTGVPDRITGSGSGTDFTLKISRVEAEDVGVYYCQQHYSTPFTFGSGTKLEIKR ... 10.15

Value of pKd reported for the binder HM1.24_H1L2 (antibody, V domains shown) VH: QVQLVQSGAEVKKPGASVKVSCKASGYTFTPYWMQWVRQAPGQGLEWMGSIFPGDGDTRYSQSFQGQVTISADKSISTAYMELSRLRSDDTAVYYCARGLRRGGYYFDYWGQGTLVTVSS VL: DIVMTQSPSSLSASVGDRVTITCQASQDVNTAVAWYQQKPDQSPKLLIYSASNRYTGVPDRITGSGSGTDFTLTISSLQAEDVAVYYCQQHYSTPFTFGSGTKLEIKR is 10.24

Value of pKd reported for the binder HM1.24_H1L4 (antibody, V domains shown) VH: QVQLVQSGAEVKKPGASVKVSCKASGYTFTPYWMQWVRQAPGQGLEWMGSIFPGDGDTRYSQSFQGQVTISADKSISTAYMELSRLRSDDTAVYYCARGLRRGGYYFDYWGQGTLVTVSS VL: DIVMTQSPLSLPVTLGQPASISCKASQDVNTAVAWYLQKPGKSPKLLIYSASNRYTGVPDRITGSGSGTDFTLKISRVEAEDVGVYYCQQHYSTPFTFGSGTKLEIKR is 10.24
